The measured values listed here are drawn from patent US9969723B2.

- Test system: Male OLETF (Otsuka Long-Evans Tokushima fatty) rats, the type II diabetes animal model (obesity)
- assay.summary: Oral glucose tolerance test (OGTT) 3
- Assay type: in vivo, rat
- condition.notes: oral dose 3 mg/kg
parameter: % AUC

Check out these entries, answers already filled in.
compound="CC#CC(CC(=O)O)c1ccc(OCc2ccc(CN3CC=C(c4ccccc4)CC3)cc2)cc1 (stereo not drawn)" parameter="% AUC" measured_result="B (25.0-35.0%)"
compound="CC#CC(CC(=O)O)c1ccc(OCc2cccc(C3=CCC(O)CC3)c2)cc1 (stereo not drawn)" parameter="% AUC" measured_result="B (25.0-35.0%)"
compound=CC#C[C@@H](CC(=O)O)c1ccc(OCc2ccc(CN3CC=C(c4ccccc4)CC3)cc2)cc1 parameter="% AUC" measured_result="B (25.0-35.0%)"
compound=CC#C[C@@H](CC(=O)[O-])c1ccc(OCc2ccc(CN3Cc4ccccc4C3)cc2)cc1.[Na+] parameter="% AUC" measured_result="A (over 35.0%)"

// next entry
Req: What does the record list as % AUC for CC#C[C@@H](CC(=O)O)c1ccc(OCc2cccc(C3=CCC4(CC3)OCCO4)c2)cc1 ?
Resp: A (over 35.0%)

---

- test.system: CYP3A4 (Homo sapiens (Human), UniProt P08684)
- Sequence (P08684 whole entry): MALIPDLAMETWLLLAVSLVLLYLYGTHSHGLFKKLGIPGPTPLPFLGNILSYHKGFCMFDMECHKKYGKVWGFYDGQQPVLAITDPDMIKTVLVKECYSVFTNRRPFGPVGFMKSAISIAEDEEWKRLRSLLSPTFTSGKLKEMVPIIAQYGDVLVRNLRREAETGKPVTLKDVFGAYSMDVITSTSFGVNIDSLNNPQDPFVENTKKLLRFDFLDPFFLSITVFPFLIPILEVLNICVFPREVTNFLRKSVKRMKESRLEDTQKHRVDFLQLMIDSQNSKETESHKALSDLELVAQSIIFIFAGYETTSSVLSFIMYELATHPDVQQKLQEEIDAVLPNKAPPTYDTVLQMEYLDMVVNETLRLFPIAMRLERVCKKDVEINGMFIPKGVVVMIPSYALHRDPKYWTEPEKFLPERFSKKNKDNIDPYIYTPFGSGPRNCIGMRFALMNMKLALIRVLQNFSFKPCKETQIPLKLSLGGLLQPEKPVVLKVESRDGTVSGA
- assay.summary: CYP inhibition (BD GENTEST kit)
- Type: in vitro ADME
- condition.notes: CYP3A4 enzyme of BD GENTEST inhibition kit, pH 7.4, read-out: CYP inhibition (%) 3A4
Kindly state inhibition at 30 min, 10 µM for each of the entries shown.
Numbers only, in %.

Answered cases to consult:
molecule="CC#C[C@@H](CC(=O)O)c1ccc(OCc2ccc(CN3CCC4(C=Cc5ccccc54)CC3)cc2)cc1 [Comparative Example 2, reference compound]" test_system="CYP3A4 (Homo sapiens (Human), UniProt P08684)" parameter="inhibition at 30 min, 10 µM" measured_result=42
molecule="CC#CC(CC(=O)O)c1ccc(OCc2cccc(C3=CCC(=O)CC3)c2)cc1 (stereo not shown)" test_system="CYP3A4 (Homo sapiens (Human), UniProt P08684)" parameter="inhibition at 30 min, 10 µM" measured_result=35
molecule=CC#C[C@@H](CC(=O)O)c1ccc(OCc2ccc(CN3CCN(c4ccc(OC)cc4)CC3)cc2)cc1 test_system="CYP3A4 (Homo sapiens (Human), UniProt P08684)" parameter="inhibition at 30 min, 10 µM" measured_result=0

Consider now this further molecule.
Req: Would you kindly share the measured inhibition at 30 min, 10 µM for CC#C[C@@H](CC(=O)O)c1ccc(OCc2ccc(CN3CCN(c4ccc(OCCCS(C)(=O)=O)cc4)CC3)cc2)cc1 ?
Resp: 11.5
